Assay: Pharmacokinetics, localization in tissue in mice bearing B16 melanoma
Type: in vivo, mouse (C57/BL)
Conditions: mouse, brain, ip, 1000 mg/kg; 30 min, 1 g/kg intraperitoneal; read-out: Brain
Readout name: concentration at 0.5 h (ng/g)
Write down the numeric answer in ng/g and omit the unit.

Value of concentration at 0.5 h reported for the molecule O=[N+]([O-])c1nccn1[C@@H]1C=C[C@H](O)[C@@H](CO)O1 is 102000

----------
Assay: In vitro cytotoxicity in oxic cells (% survival)
Type: cell-based, Chinese hamster
Settings: hamster, v-79 cells, oxic, 4 hours, 0.05 mM; read-out: In vitro cytoxicity in oxic cells (% survival at 4 hours)
Readout name: viability at 4 h, 50 µM (%)
Write down the numeric answer in % and omit the unit.

Value of viability at 4 h, 50 µM reported for the compound CC(=O)OC[C@H]1O[C@H](n2ccnc2[N+](=O)[O-])C=C[C@@H]1OC(C)=O [B] is 100
